# test.system: recombinant human LRRK2 (catalytic domain only [amino acids 970-2527], GST-tagged) (Homo sapiens (Human), UniProt Q5S007)
# Sequence (Q5S007 970-2527): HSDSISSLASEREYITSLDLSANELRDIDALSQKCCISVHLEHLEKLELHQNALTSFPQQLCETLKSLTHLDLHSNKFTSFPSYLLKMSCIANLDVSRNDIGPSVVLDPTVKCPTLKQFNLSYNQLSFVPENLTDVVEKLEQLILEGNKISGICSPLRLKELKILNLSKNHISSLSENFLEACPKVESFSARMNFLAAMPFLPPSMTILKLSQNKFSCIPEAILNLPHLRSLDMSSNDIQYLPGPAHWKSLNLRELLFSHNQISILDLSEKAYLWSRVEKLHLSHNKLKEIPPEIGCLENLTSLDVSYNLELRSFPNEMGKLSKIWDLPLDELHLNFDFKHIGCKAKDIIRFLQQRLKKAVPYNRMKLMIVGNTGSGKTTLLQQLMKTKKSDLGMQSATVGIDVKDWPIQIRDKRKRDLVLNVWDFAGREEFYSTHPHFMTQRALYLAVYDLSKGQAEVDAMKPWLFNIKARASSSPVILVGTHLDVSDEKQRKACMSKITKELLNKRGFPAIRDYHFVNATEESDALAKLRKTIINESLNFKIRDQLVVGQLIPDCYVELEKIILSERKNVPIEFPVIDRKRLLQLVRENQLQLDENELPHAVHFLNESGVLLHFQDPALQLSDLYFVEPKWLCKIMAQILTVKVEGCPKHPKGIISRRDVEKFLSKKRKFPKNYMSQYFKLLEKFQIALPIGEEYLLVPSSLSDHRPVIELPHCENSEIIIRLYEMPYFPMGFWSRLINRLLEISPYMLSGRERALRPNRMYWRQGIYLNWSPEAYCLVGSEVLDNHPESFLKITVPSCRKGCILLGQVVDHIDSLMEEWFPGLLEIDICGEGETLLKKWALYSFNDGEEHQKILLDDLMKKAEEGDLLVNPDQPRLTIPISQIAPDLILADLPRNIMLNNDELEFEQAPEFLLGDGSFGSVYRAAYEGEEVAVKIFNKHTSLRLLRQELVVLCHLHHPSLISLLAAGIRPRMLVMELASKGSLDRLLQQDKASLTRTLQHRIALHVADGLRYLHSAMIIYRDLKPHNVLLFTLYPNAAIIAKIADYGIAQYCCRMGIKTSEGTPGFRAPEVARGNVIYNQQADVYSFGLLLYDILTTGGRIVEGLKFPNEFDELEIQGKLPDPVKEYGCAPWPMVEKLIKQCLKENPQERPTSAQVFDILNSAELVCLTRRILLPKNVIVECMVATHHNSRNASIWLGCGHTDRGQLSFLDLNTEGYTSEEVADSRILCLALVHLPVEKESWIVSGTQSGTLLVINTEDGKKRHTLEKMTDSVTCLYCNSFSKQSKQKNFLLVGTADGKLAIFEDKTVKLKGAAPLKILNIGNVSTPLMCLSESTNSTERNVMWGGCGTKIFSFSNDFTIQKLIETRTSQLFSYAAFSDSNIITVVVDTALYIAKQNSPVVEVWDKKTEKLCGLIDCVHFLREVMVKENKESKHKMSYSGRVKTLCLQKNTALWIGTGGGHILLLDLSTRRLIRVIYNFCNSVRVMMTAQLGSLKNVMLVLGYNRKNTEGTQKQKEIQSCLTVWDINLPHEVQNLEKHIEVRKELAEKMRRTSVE
# test.description: LRRK2 Enzymatic Assay
# condition.context: LRRKtide substrate, [32P]-ATP
pIC50: −log10 of the molar value.
endpoint: pIC50

compound	pIC50
Cc1nn(C(C)(C)C#N)cc1Nc1ncc(F)c(OCC2CC(C#N)C2)n1 (single isomer, unassigned) [Example 290]	> 7.30
Cc1nn(C(C)(C)C#N)cc1Nc1ncc(F)c(OCC2CCC(O)C2)n1 (centres unmarked) [Example 127]	> 7.30
Cc1nn(C(C)(C)C#N)cc1Nc1ncc(Cl)c(OCC2CCC(NC3CC(F)(F)C3)CC2)n1 (centres unmarked) [Example 145]	> 7.30

# per-item lookup of pIC50; items listed below
1. CC(=O)N[C@H]1CC[C@@H](COc2ccnc(Nc3ccc(N4CCOCC4)cc3)n2)C1 [Example 89]
2. Cn1ccc(Nc2nccc(OC[C@H]3CC[C@H](N)CC3)n2)n1 [Example 4]
3. CC(=O)N[C@H]1CC[C@H](COc2ccnc(Nc3cn(C(C)(C)C#N)nc3C)n2)CC1 [Example 74]
4. Cc1c(Nc2ncc(Cl)c(OCC3CCN(C)CC3)n2)cnn1C1CC(C#N)C1 (centres unmarked) [Example 58]
5. Cc1nn(C(C)C)cc1Nc1ncc(F)c(OC[C@H]2CC[C@H](O)CC2)n1 [Example 230]

A.
["< 6.40", "6.70 to 7.30", "6.70 to 7.30", "> 7.30", "6.70 to 7.30"]

# per-item lookup of pIC50; items listed below
1. Fc1cnc(Nc2ccc(N3CCOCC3)cc2)nc1OCC1(F)CCNCC1 [Example 24]
2. CC(=O)N1CCC(COc2nc(Nc3ccc(N4CCOCC4)cc3)ncc2F)C(F)C1 (single isomer, unassigned) [Example 172]
3. OCC1CCC(COc2ccnc(Nc3ccc(N4CCOCC4)cc3)n2)CC1 (centres unmarked) [Example 139]

A.
6.70 to 7.30
6.70 to 7.30
6.70 to 7.30

###

# test.system: recombinant human LRRK2 (catalytic domain only [amino acids 970-2527], GST-tagged) (Homo sapiens (Human))
# test.description: LRRK2 Enzymatic Assay
# condition.context: LRRKtide substrate, [32P]-ATP
pIC50: −log10 of the molar value.
endpoint: pIC50

Known results for compounds:
compound	pIC50
O[C@H]1CC[C@H](COc2nc(Nc3cnn(C(F)(F)F)c3)ncc2F)CC1	< 6.40
C[C@@H]1CN(c2ccc(Nc3ncc(F)c(OCC4CCNCC4(F)F)n3)cc2)C[C@H](C)O1 (stereo partly shown)	> 7.30
CC(=O)N[C@H]1CC[C@H](COc2nc(Nc3cn(C4CC4)nc3Cl)ncc2F)CC1	> 7.30

Now let's try a different one.
Q. What pIC50 value was documented for this compound, CNC[C@H]1CC[C@H](COc2nc(Nc3cn(C4CC(C#N)C4)nc3C)ncc2Cl)CC1 (stereo partly shown) ?
A. > 7.30

###

# test.system: recombinant human LRRK2 (catalytic domain only [amino acids 970-2527], GST-tagged) (Homo sapiens (Human), UniProt Q5S007)
# test.description: LRRK2 Enzymatic Assay
# condition.context: LRRKtide substrate, [32P]-ATP
Provide the recorded IC50 for the entries that follow.

Known results for compounds:
compound	IC50
CC(=O)NC1CCC(C)(COc2ccnc(Nc3ccc(N4CCOCC4)cc3)n2)CC1 (stereo not shown)	> 400 nM
CC(=O)N1CCC(COc2nc(Nc3ccc(N4C[C@@H](C)O[C@@H](C)C4)cc3)ncc2F)C(F)C1 (single isomer, unassigned) [Example 175]	200 to 400 nM
Cc1nn(C(C)(C)C#N)cc1Nc1ncc(F)c(OCC2(F)CCN(C)CC2)n1	> 400 nM
C[C@@H]1CN(c2ccc(Nc3ncc(F)c(OCC4(F)CCNCC4)n3)cc2)C[C@H](C)O1	< 50 nM
C[C@@H]1CN(c2ccc(Nc3nccc(OCC45CCC(O)(CC4)CC5)n3)cc2)C[C@H](C)O1	> 400 nM

# per-item lookup of IC50; items listed below
1. Cn1cc(Nc2ncc(F)c(OC[C@H]3CC[C@H](O)CC3)n2)c(Cl)n1
2. N[C@H]1CC[C@@H](COc2ccnc(Nc3ccc(N4CCOCC4)cc3)n2)CC1

A.
50 to 200 nM
< 50 nM
